These entries and their values trace back to patent US20250129027A1.

Assay: Pharmacokinetic study in rats, IV and oral gavage, with brain penetration
Assay type: in vivo, rat
Details: male, Sprague Dawley, rat, plasma, oral, 10 mg/kg, rat, PO 10.0 mg/kg vs IV 1.0 mg/kg; read-out: F (%) oral bioavailability
Measurement label: bioavailability (%)
Give bare numbers, in %.

Query :: Entry under review: O=C(NC1CCCCC1)Oc1ccc(O)c(-c2cncc(-c3nnco3)c2)c1 [Example 158] . Reported bioavailability?
Result :: 53

---

Target: human recombinant FAAH (Homo sapiens (Human))
Sequence (O00519 whole entry): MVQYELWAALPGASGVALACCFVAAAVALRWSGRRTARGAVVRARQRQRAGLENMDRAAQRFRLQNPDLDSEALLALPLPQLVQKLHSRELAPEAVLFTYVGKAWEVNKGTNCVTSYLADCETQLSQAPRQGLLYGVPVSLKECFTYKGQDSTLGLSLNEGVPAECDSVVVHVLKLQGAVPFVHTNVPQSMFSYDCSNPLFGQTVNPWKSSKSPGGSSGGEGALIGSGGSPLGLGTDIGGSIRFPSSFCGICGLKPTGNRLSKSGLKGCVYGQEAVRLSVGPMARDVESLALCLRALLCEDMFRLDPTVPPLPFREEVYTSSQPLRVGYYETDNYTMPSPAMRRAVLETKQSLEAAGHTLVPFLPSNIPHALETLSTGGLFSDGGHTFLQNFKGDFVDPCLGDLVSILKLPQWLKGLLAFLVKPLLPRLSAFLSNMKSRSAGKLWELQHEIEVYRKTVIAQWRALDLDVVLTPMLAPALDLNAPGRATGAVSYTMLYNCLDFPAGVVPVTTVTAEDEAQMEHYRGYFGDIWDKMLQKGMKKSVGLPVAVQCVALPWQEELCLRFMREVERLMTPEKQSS
Assay: In vitro inhibition of FAAH activity (fluorescent inhibitor screening kit, AMC arachidonoyl amide)
Format: biochemical
Details: human recombinant FAAH; read-out: Inhibition on FAAH activity (IC50)
pIC50: −log10 of the molar value.
So I've got a bunch of compounds here, and I need their pIC50 values.

Before answering, review these 4 worked examples.
[
  {
    "Compound": "O=C(NCc1ccccc1)Oc1cccc(-c2cncc(-c3ccco3)c2)c1 [Example 49]",
    "Target or test system": "human recombinant FAAH (Homo sapiens (Human))",
    "pIC50": "6.00 to 7.00"
  },
  {
    "Compound": "Cc1ccc(-c2cncc(-c3ncco3)c2)cc1OC(=O)NCC1CCCCC1 [Example 93]",
    "Target or test system": "human recombinant FAAH (Homo sapiens (Human))",
    "pIC50": "< 6.00"
  },
  {
    "Compound": "O=C(NC1CCCCC1)Oc1cccc(-c2cncc(-c3ncn[nH]3)c2)c1 [Example 224]",
    "Target or test system": "human recombinant FAAH (Homo sapiens (Human))",
    "pIC50": "6.00 to 7.00"
  },
  {
    "Compound": "O=C(NC1CCCCC1)Oc1cccc(-c2cncc(-c3nccs3)c2)c1 [Example 119]",
    "Target or test system": "human recombinant FAAH (Homo sapiens (Human))",
    "pIC50": "7.00 to 8.00"
  }
]

I have 7 compounds here; please give me pIC50 for each one.
1. CCOC(=O)c1cncc(-c2cccc(OC(=O)NC3CCCC3)c2)c1 [Example 5]
2. O=C(Oc1cccc(-c2cncc(-c3nnco3)c2)c1)N1C2CCCC1CC2 [Example 150]
3. O=C(NC1CCCCC1)Oc1cccc(-c2cncc(-c3nnco3)c2)c1 [Example 139]
4. CCCCCCCCNC(=O)Oc1ccc(OC)c(-c2cncc(-c3ccno3)c2)c1 [Example 109]
5. CC1CCC(NC(=O)Oc2ccc(OC(F)(F)F)c(-c3cncc(-c4ncco4)c3)c2)CC1 (stereo not drawn) [Example 90]
6. O=C(NC1CCCCC1)Oc1cccc(-c2cncc(-c3ncco3)c2)c1 [Example 76]
7. CCCCCCCNC(=O)Oc1cccc(-c2cncc(C(=O)OCC)c2)c1 [Example 2]

Result ::
1. 7.00 to 8.00
2. < 6.00
3. 7.00 to 8.00
4. 8.00 to 9.00
5. 6.00 to 7.00
6. 6.00 to 8.00
7. 7.00 to 8.00

State the recorded pIC50 for every item in the following list.
1. CCOC(=O)c1cncc(-c2cccc(OC(=O)Nc3ccc(F)cc3)c2)c1 [Example 7]
2. O=C(NC1CCCCCC1)Oc1cccc(-c2cncc(-c3nccs3)c2)c1 [Example 120]
3. COc1ccc(OC(=O)NCC2CCCCC2)cc1-c1cncc(-c2nnco2)c1 [Example 168]
4. COc1ccc(OC(=O)NCC2CCCCC2)cc1-c1cncc(-c2ccco2)c1 [Example 54]
5. O=C(NC1CCCCC1)Oc1cccc(-c2cncc(-c3ncno3)c2)c1 [Example 205]
6. O=Cc1cncc(-c2cccc(OC(=O)NC3CCCC3)c2)c1 [Example 18]
7. O=C(NC1CCCCC1)Oc1cccc(-c2cncc(-c3nnn[nH]3)c2)c1 [Example 242]

Result ::
1. < 6.00
2. 7.00 to 8.00
3. 6.00 to 7.00
4. 6.00 to 7.00
5. 7.00 to 8.00
6. 7.00 to 8.00
7. < 6.00
